# Target Under Test: T1, soluble HLA-A2 (…) tetramer (human)
# T1 construct: Bought tetramer reagent; also called MAGE-A4/HLA tetramer reagent; HLA-A02:01 MAGE-A4 tetramer
# Assay Name: flow cytometry, HLA-A2 (…) tetramer staining of CHO cells transfected with the TCR
Assign a class from recorded % in Ag+ gate >250 MFI, >1%; defined classes: Low: < 70%; Mid: ≥ 70% and < 80%; High: ≥ 80%

[ask] Assign a bin to PN41559 (TCR, V domains shown, stained with anti-mouse TCR constant region H57-597; full-length chains on transfected CHO cells; also called TCR No. 12) V domain 1: AQTVTQSQPEMSVQEAETVTLSCTYDTSESDYYLFWYKQPPSRQMILVIRQEAYKQQNATENRFSVNFQKAAKSFSLKISDSQLGDAAMYFCAYRSATGNQFYFGTGTSLTVIP V domain 2: DVKVTQSSRYLVKRTGEKVFLECVQDMDHENMFWYRQDPGLGLRLIYFSYDVKMKEKGDIPEGYSVSREKKERFSLILESASTNQTSMYLCASSLWGWGTEAFFGQGTRLTVV
[reply] Mid

[ask] Assign a bin to PN41746 (TCR, V domains shown, stained with anti-mouse TCR constant region H57-597; full-length chains on transfected CHO cells; also called TCR No. 28) V domain 1: AQTVTQSQPEMSVQEAETVTLSCTYDTSESDYYLFWYKQPPSRQMILVIRQEAYKQQNATENRFSVNFQKAAKSFSLKISDSQLGDAAMYFCAYRSATGNQFYFGTGTSLTVIP V domain 2: DVKVTQSSRYLVKRTGEKVFLECVQDMDHENMFWYRQDPGLGLRLIYFSYDVKMKEKGDIPEGYSVSREKKERFSLILESASTNQTSMYLCASSLWGLNTEAFFGQGTRLTVV
[reply] High

[ask] Assign a bin to PN41532 (TCR, V domains shown, stained with anti-mouse TCR constant region H57-597; full-length chains on transfected CHO cells; also called TCR No. 8) V domain 1: AQTVTQSQPEMSVQEAETVTLSCTYDTSESDYYLFWYKQPPSRQMILVIRQEAYKQQNATENRFSVNFQKAAKSFSLKISDSQLGDAAMYFCAYRSAEGNQFYFGTGTSLTVIP V domain 2: DVKVTQSSRYLVKRTGEKVFLECVQDMDHENMFWYRQDPGLGLRLIYFSYDVKMKEKGDIPEGYSVSREKKERFSLILESASTNQTSMYLCASSLWGLNTEAFFGQGTRLTVV
[reply] High

Others:
[ask] Assign a bin to PN41539 (TCR, V domains shown, stained with anti-mouse TCR constant region H57-597; full-length chains on transfected CHO cells; also called TCR No. 9) V domain 1: AQKVTQAQTEISVVEKEDVTLDCVYETRDTTYYLFWYKQPPSGELVFLIRRNSFDEQNEISGRYSWNFQKSTSSFNFTITASQVVDSAVYFCALSEGDTGGFKTIFGAGTRLFVKA V domain 2: NAGVTQTPKFRILKIGQSMTLQCAQDMNHNYMYWYRQDPGMGLKLIYYSVGAGITDKGEVPNGYNVSRSTTEYFPLRLELAAPSQTSVYFCASSYFPDRGLGNTIYFGEGSWLTVV
[reply] Low

[ask] Assign a bin to PN41822 (TCR, V domains shown, stained with anti-mouse TCR constant region H57-597; full-length chains on transfected CHO cells; also called TCR No. 32) V domain 1: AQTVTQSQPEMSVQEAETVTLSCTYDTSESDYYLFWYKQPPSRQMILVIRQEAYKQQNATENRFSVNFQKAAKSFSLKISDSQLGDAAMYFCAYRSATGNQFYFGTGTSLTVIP V domain 2: DVKVTQSSRYLVKRTGEKVFLECVQDMDHENMFWYRQDPGLGLRLIYFSYDVKMKEKGDIPEGYSVSREKKERFSLILESASTNQTSMYLCASSLWALNTEAFFGQGTRLTVV
[reply] Low

[ask] Assign a bin to PN41475 (TCR, V domains shown, stained with anti-mouse TCR constant region H57-597; full-length chains on transfected CHO cells; also called TCR No. 1) V domain 1: AQTVTQSQPEMSVQEAETVTLSCTYDTSESDYYLFWYKQPPSRQMILVIRQEAYKQQNATVNRFSVNFQKAAKSFSLKISDSQLGDAAMYFCAYRSATGNQFYFGTGTSLTVIP V domain 2: DVKVTQSSRYLVKRTGEKVFLECVQDMDHENMFWYRQDPGLGLRLIYFSYDVKMKEKGDIPEGYSVSREKKERFSLILESASTNQTSMYLCASSLWGSNTEAFFGQGTRLTVV
[reply] Low

[ask] Assign a bin to PN41608 (TCR, V domains shown, stained with anti-mouse TCR constant region H57-597; full-length chains on transfected CHO cells; also called TCR No. 18) V domain 1: AQTVTQSQPEMSVQEAETVTLSCTYDTSESDYYLFWYKQPPSRQMILVIRQEAYKQQNATENRFSVNFQKAAKSFSLKISDSQLGDAAMYFCAYRSAPGNQFYFGTGTSLTVIP V domain 2: DVKVTQSSRYLVKRTGEKVFLECVQDMDHENMFWYRQDPGLGLRLIYFSYDVKMKEKGDIPEGYSVSREKKERFSLILESASTNQTSMYLCASSFWGWNTEAFFGQGTRLTVV
[reply] Mid

[ask] Assign a bin to PN41820 (TCR, V domains shown, stained with anti-mouse TCR constant region H57-597; full-length chains on transfected CHO cells; also called TCR No. 31) V domain 1: AQSVTQPGSHVSVSEGALVLLRCNYSSSVPPYLFWYVQYPNQGLQLLLKYTTGATLVKGINGFEAEFKKSETSFHLTKPSAHMSDAAEYFCAVSSGSARQLTFGSGTQLTVLP V domain 2: DVKVTQSSRYLVKRTGEKVFLECVQDMDHENMFWYRQDPGLGLRLIYFSYDVKMKEKGDIPEGYSVSREKKERFSLILESASTNQTSMYLCASSHDRWDYGYTFGSGTRLTVV
[reply] Low

[ask] Assign a bin to PN41568 (TCR, V domains shown, stained with anti-mouse TCR constant region H57-597; full-length chains on transfected CHO cells; also called TCR No. 14) V domain 1: AQTVTQSQPEMSVQEAETVTLSCTYDTSESDYYLFWYKQPPSRQMILVIRQEAYKQQNATENRFSVNFQKAAKSFSLKISDSQLGDAAMYFCAYRSARGNQFYFGTGTSLTVIP V domain 2: DVKVTQSSRYLVKRTGEKVFLECVQDMDHENMFWYRQDPGLGLRLIYFSYDVKMKEKGDIPEGYSVSREKKERFSLILESASTNQTSMYLCASSLWGTNEKLFFGSGTQLSVL
[reply] High
